# credit: ChEMBL document CHEMBL1914430

system: HCC 2998; assay: Anticancer activity against human HCC2998 cells after 48 hrs; assay type: functional; conditions: HCC 2998, 48 h
observable: TGI (µM)
Give the quantity in µM, number only.

Recorded TGI, per entry:
{"compound": "COc1ccc(C2CC(c3cc(Cl)c(C)cc3O)=NN2c2ccc(S(N)(=O)=O)cc2)cc1OC (centres undefined)", "observable": "TGI", "readout_number": 7.25}
{"compound": "Cc1cc(O)c(C2=NN(c3ccc(S(N)(=O)=O)cc3)C(c3ccccc3O)C2)cc1Cl (centres undefined)", "observable": "TGI", "readout_number": 4.31}

Query string: Indicate its recorded TGI; the compound in question is Cc1cc(O)c(C2=NN(c3ccc(S(N)(=O)=O)cc3)C(/C=C/c3ccccc3)C2)cc1Cl (centres undefined)
Result string: 30.3

Query string: Indicate its recorded TGI; the compound in question is Cc1cc(O)c(C2=NN(c3ccc(S(N)(=O)=O)cc3)C(c3ccccc3Cl)C2)cc1Cl (centres undefined)
Result string: 3.91

* * *

test system: A549; assay: Anticancer activity against human A549 cells after 48 hrs; type: functional; conditions: A549, 48 h
observable: TGI (µM)
Give the quantity in µM, number only.

{"compound": "COc1ccc(C2CC(c3cc(Cl)c(C)cc3O)=NN2c2ccc(S(N)(=O)=O)cc2)cc1OC (centres undefined)", "observable": "TGI", "readout_number": 19.7}
{"compound": "Cc1cc(O)c(C2=NN(c3ccc(S(N)(=O)=O)cc3)C(c3ccccc3O)C2)cc1Cl (centres undefined)", "observable": "TGI", "readout_number": 15.5}
{"compound": "Cc1cc(O)c(C2=NN(c3ccc(S(N)(=O)=O)cc3)C(c3ccccc3Cl)C2)cc1Cl (centres undefined)", "observable": "TGI", "readout_number": 19.3}

Okay, now this compound:
Query string: Indicate its recorded TGI; the compound in question is Cc1cc(O)c(C2=NN(c3ccc(S(N)(=O)=O)cc3)C(/C=C/c3ccccc3)C2)cc1Cl (centres undefined)
Result string: 30.8

* * *

test system: NCI/ADR-RES; assay: Anticancer activity against human NCI/ADR-RES cells after 48 hrs; type: functional
Known GI50 of a selection of compounds
Give the quantity in µM, number only.

Query string: Indicate its recorded GI50; the compound in question is Cc1cc(O)c(C2=NN(c3ccc(S(N)(=O)=O)cc3)C(c3ccccc3O)C2)cc1Cl (centres undefined)
Result string: 3.61

Query string: Indicate its recorded GI50; the compound in question is Cc1cc(O)c(C2=NN(c3ccc(S(N)(=O)=O)cc3)C(c3ccccc3Cl)C2)cc1Cl (centres undefined)
Result string: 2.7

Query string: Indicate its recorded GI50; the compound in question is COc1ccc(C2CC(c3cc(Cl)c(C)cc3O)=NN2c2ccc(S(N)(=O)=O)cc2)cc1OC (centres undefined)
Result string: 3.39

Query string: Indicate its recorded GI50; the compound in question is Cc1cc(O)c(C2=NN(c3ccc(S(N)(=O)=O)cc3)C(/C=C/c3ccccc3)C2)cc1Cl (centres undefined)
Result string: 9.26

* * *

Known GI50 of a selection of molecules
tested on: SW-620; assay: Anticancer activity against human SW620 cells after 48 hrs; format: functional; conditions: SW-620, 48 h
Give the quantity in µM, number only.

Recorded GI50, per entry:
{"molecule": "Cc1cc(O)c(C2=NN(c3ccc(S(N)(=O)=O)cc3)C(c3ccccc3O)C2)cc1Cl (centres undefined)", "measured_on": "SW-620", "units_of_measure": "µM", "GI50": 1.76}
{"molecule": "Cc1cc(O)c(C2=NN(c3ccc(S(N)(=O)=O)cc3)C(/C=C/c3ccccc3)C2)cc1Cl (centres undefined)", "measured_on": "SW-620", "units_of_measure": "µM", "GI50": 11.7}
{"molecule": "COc1ccc(C2CC(c3cc(Cl)c(C)cc3O)=NN2c2ccc(S(N)(=O)=O)cc2)cc1OC (centres undefined)", "measured_on": "SW-620", "units_of_measure": "µM", "GI50": 4.08}

Okay, now this molecule:
Query string: Indicate its recorded GI50; the molecule in question is Cc1cc(O)c(C2=NN(c3ccc(S(N)(=O)=O)cc3)C(c3ccccc3Cl)C2)cc1Cl (centres undefined)
Result string: 1.97

* * *

Known TGI of a selection of molecules
tested on: SNB-19; assay: Anticancer activity against human SNB19 cells after 48 hrs; format: functional; conditions: SNB-19, 48 h
Give the quantity in µM, number only.

Recorded TGI, per entry:
{"molecule": "COc1ccc(C2CC(c3cc(Cl)c(C)cc3O)=NN2c2ccc(S(N)(=O)=O)cc2)cc1OC (centres undefined)", "measured_on": "SNB-19", "units_of_measure": "µM", "TGI": 89.3}
{"molecule": "Cc1cc(O)c(C2=NN(c3ccc(S(N)(=O)=O)cc3)C(/C=C/c3ccccc3)C2)cc1Cl (centres undefined)", "measured_on": "SNB-19", "units_of_measure": "µM", "TGI": 19.9}
{"molecule": "Cc1cc(O)c(C2=NN(c3ccc(S(N)(=O)=O)cc3)C(c3ccccc3O)C2)cc1Cl (centres undefined)", "measured_on": "SNB-19", "units_of_measure": "µM", "TGI": 15.2}

Okay, now this molecule:
Query string: Indicate its recorded TGI; the molecule in question is Cc1cc(O)c(C2=NN(c3ccc(S(N)(=O)=O)cc3)C(c3ccccc3Cl)C2)cc1Cl (centres undefined)
Result string: 16.3

* * *

tested on: COLO 205; assay: Anticancer activity against human COLO205 cells after 48 hrs; format: functional; conditions: COLO 205, 48 h
observable: LC50 (concentration giving net 50% loss of initial cells) (µM)
Give the quantity in µM, number only.

Recorded LC50 (concentration giving net 50% loss of initial cells), per entry:
{"compound": "COc1ccc(C2CC(c3cc(Cl)c(C)cc3O)=NN2c2ccc(S(N)(=O)=O)cc2)cc1OC (centres undefined)", "readout_number": 6.02}
{"compound": "Cc1cc(O)c(C2=NN(c3ccc(S(N)(=O)=O)cc3)C(c3ccccc3O)C2)cc1Cl (centres undefined)", "readout_number": 6.43}
{"compound": "Cc1cc(O)c(C2=NN(c3ccc(S(N)(=O)=O)cc3)C(c3ccccc3Cl)C2)cc1Cl (centres undefined)", "readout_number": 6.03}

Okay, now this compound:
Query string: Indicate its recorded LC50 (concentration giving net 50% loss of initial cells); the compound in question is Cc1cc(O)c(C2=NN(c3ccc(S(N)(=O)=O)cc3)C(/C=C/c3ccccc3)C2)cc1Cl (centres undefined)
Result string: 47

* * *

Known TGI of a selection of molecules
tested on: NCI-H322M; experiment: Anticancer activity against human NCI-H322M cells after 48 hrs; type: functional

Recorded TGI, per entry:
{"molecule": "Cc1cc(O)c(C2=NN(c3ccc(S(N)(=O)=O)cc3)C(c3ccccc3O)C2)cc1Cl (stereo not drawn)", "TGI": "7.24 µM"}
{"molecule": "Cc1cc(O)c(C2=NN(c3ccc(S(N)(=O)=O)cc3)C(/C=C/c3ccccc3)C2)cc1Cl (stereo not drawn)", "TGI": "27.5 µM"}

Okay, now this molecule:
Query string: Indicate its recorded TGI; the molecule in question is Cc1cc(O)c(C2=NN(c3ccc(S(N)(=O)=O)cc3)C(c3ccccc3Cl)C2)cc1Cl (stereo not drawn)
Result string: 5.06 µM
